Source listed as patent US12606546B2.

biological target: CaV3.2 (Homo sapiens, UniProt O95180); experiment: Whole-cell patch clamp in HEK293T cells transiently expressing CaV3.2; conditions: depolarizing voltage of −10 mV
Sequence (O95180 whole entry): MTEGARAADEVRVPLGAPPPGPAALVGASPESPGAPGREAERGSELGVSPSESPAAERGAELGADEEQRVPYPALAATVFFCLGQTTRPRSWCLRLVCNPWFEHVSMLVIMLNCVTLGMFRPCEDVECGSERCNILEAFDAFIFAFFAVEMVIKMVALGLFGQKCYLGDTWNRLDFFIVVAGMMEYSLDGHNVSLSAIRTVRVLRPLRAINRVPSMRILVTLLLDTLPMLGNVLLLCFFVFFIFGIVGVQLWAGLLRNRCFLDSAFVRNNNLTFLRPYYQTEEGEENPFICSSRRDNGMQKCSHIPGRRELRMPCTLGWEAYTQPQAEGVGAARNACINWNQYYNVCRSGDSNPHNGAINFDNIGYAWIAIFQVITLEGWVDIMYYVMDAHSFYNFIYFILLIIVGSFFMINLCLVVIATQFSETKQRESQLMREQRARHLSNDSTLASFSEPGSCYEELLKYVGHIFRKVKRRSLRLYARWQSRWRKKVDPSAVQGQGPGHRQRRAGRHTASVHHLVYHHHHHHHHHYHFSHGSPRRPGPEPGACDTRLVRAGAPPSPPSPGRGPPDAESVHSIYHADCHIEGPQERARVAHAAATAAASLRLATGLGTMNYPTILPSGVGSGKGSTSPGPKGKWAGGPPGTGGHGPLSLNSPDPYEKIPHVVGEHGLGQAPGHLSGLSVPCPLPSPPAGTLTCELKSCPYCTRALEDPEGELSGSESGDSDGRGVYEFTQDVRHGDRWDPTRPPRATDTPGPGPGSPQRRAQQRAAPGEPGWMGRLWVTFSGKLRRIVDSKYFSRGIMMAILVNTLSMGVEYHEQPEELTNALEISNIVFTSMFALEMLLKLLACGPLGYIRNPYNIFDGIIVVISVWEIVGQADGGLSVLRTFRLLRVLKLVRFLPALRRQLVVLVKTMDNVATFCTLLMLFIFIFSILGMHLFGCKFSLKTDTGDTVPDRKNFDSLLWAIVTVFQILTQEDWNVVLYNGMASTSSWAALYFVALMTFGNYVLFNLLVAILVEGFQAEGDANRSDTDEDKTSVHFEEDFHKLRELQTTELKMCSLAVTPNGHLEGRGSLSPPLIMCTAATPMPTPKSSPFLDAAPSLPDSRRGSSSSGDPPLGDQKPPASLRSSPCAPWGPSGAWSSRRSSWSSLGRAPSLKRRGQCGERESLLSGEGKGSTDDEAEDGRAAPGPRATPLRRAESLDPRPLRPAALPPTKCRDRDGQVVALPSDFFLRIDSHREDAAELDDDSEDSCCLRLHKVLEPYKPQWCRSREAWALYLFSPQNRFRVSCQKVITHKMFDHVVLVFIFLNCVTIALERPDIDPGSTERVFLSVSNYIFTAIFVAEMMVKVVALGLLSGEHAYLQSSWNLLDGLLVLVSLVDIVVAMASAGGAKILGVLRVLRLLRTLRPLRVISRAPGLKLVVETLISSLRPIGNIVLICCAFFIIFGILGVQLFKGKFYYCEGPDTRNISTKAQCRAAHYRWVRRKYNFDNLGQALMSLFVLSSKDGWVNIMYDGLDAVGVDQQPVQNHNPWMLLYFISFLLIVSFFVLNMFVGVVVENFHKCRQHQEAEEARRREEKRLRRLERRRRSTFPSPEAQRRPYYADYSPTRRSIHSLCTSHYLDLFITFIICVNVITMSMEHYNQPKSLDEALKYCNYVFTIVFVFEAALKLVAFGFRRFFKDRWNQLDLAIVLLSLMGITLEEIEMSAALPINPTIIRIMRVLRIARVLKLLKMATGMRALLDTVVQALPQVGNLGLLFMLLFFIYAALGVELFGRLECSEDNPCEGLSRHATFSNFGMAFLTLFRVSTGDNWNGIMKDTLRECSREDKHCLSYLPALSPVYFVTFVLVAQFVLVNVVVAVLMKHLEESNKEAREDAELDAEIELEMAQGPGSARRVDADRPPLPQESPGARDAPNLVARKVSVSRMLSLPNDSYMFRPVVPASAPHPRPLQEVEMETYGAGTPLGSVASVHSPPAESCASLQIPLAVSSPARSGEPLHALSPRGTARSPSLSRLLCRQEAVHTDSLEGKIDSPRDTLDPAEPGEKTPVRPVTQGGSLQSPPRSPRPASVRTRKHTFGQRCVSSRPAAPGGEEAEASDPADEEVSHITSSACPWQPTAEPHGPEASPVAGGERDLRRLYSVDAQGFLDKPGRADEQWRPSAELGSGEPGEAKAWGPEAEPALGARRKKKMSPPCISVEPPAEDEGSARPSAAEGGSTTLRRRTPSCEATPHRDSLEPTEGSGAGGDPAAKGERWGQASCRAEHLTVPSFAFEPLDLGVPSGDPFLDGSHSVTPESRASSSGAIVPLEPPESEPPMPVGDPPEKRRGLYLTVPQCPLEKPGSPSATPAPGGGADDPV
Reported property: pIC50
# reply with the number alone; pIC50 is -log10 of concentration in mol/L

Note down pIC50 recorded for Cc1ccc([C@H](c2nnnn2Cc2ccccc2)N2CCN(C(=O)c3ccccc3)CC2)s1
4.45

====

Target: CaV3.1 (Homo sapiens)
Construct: expressed in transfected cells; host or cells: HEK293T
Sequence (O43497 whole entry): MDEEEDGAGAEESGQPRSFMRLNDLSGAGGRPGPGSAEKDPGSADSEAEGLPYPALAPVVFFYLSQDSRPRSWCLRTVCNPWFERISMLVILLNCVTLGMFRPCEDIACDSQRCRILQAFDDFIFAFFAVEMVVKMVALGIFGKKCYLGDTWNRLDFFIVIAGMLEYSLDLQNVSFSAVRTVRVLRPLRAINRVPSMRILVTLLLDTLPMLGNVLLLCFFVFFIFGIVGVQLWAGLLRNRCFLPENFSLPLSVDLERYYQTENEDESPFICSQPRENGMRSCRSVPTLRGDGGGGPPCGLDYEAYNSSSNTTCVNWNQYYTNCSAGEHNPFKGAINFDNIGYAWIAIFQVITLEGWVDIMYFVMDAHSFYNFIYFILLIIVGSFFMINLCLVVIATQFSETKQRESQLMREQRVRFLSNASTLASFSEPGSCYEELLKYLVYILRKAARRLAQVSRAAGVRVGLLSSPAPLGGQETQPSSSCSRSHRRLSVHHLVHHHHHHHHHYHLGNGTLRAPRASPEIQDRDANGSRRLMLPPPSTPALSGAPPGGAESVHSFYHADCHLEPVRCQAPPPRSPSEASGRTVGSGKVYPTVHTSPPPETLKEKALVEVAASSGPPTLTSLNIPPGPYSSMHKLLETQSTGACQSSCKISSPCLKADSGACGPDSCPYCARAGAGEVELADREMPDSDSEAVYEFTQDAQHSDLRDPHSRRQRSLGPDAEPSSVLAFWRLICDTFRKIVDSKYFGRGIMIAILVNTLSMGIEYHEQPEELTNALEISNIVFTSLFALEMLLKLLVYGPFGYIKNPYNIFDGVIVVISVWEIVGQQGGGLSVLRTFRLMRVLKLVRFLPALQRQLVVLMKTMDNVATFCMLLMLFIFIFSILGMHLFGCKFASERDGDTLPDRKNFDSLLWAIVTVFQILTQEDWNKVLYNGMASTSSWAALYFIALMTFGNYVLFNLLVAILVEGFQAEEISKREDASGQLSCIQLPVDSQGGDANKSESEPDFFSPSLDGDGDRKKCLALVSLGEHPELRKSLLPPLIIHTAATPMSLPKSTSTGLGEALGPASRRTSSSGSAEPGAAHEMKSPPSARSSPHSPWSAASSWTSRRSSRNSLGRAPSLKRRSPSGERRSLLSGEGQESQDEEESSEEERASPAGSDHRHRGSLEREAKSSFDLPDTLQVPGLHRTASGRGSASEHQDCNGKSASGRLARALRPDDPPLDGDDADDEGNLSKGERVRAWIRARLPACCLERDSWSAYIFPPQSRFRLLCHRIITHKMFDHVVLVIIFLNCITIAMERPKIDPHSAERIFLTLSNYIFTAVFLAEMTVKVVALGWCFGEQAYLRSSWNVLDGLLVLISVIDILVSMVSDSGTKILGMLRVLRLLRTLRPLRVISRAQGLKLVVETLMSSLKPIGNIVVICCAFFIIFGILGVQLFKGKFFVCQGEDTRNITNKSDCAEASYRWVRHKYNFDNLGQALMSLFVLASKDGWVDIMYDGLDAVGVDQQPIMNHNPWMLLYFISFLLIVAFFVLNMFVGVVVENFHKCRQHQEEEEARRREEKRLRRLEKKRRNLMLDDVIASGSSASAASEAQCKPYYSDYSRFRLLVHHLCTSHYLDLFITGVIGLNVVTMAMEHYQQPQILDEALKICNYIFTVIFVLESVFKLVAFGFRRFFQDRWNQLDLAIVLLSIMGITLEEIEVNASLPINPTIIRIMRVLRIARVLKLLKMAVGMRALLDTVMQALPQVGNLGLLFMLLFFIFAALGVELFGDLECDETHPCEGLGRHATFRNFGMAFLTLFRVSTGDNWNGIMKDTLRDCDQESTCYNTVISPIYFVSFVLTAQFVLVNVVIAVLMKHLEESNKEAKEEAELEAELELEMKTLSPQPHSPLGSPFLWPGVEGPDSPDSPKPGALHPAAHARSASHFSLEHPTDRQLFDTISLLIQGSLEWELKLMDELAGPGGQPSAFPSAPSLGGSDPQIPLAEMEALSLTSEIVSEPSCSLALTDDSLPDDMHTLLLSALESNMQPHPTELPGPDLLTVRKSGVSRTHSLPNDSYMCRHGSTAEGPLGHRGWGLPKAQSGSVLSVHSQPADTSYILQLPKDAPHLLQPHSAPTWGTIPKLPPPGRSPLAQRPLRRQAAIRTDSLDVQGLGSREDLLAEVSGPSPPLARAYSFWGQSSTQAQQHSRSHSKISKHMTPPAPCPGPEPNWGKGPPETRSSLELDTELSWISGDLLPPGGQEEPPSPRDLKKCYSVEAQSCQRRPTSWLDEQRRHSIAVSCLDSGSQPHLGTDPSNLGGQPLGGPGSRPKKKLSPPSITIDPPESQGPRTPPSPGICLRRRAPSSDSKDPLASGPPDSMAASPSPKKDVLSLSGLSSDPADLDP
Assay: Whole-cell patch clamp in HEK293T cells transiently expressing CaV3.1
Type: cell-based
Conditions: depolarizing voltage of −10 mV
Experimental: Human embryonic kidney HEK293T cells were cultured in DMEM supplemented with 10% fetal bovine serum and 1% penicillin/streptomycin sulfate, maintained in standard conditions (5% CO2, 37° C., saturated humidity). Cells were transfected with 2 μg of either of the channel cDNAs using Lipofectamine 2000 when cell confluence reached 70-90%. […] Positively transfected cells were indicated by the fluorescence of co-transfected enhanced green fluorescent protein (0.2 μg). […]
Reported property: IC50 (µM)
Numeric answer only, unit µM assumed.

Name the recorded IC50 of the compound listed here: Cc1ccc([C@H](c2nnnn2Cc2ccccc2)N2CCN(C(=O)c3ccccc3)CC2)s1
23
